# Measured Target: AChE (from the electric eel) (Electrophorus electricus, UniProt O42275)
# Construct: purchased Sigma Aldrich
# Sequence (O42275 24-633): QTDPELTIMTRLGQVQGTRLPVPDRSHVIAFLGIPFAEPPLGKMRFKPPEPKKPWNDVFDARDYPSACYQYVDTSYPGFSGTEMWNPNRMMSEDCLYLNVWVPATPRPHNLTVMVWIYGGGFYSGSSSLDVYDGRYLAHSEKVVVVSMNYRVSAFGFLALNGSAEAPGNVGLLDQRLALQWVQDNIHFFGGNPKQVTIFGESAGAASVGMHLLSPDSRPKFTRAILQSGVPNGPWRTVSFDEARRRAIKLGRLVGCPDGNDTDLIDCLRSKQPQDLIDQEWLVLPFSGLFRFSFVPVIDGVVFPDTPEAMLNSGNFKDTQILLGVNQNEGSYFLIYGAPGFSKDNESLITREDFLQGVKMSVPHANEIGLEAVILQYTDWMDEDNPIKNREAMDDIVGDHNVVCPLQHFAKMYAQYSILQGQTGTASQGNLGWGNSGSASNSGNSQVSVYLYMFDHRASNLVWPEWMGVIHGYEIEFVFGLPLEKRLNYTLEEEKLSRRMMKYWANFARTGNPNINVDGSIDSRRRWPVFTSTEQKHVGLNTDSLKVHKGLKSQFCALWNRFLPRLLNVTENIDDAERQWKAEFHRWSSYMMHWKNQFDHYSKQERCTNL
# Assay Method Text: biochemical
# Measurement Parameters: IC50(BuChE)/IC50(AChE)
The reader will find reported Selectivity for AChE values listed item by item below.
Experimental Readout: Selectivity for AChE

compound="O=C(NCCNc1c2c(nc3ccccc13)CCC2)c1cc(Cl)cc(Cl)c1 [Compound 3a]" experimental_readout="Selectivity for AChE" result=0.15
compound="O=C(NCCCCCCCNc1c2c(nc3ccccc13)CCC2)c1cc(Cl)cc(Cl)c1 [Compound 3f]" experimental_readout="Selectivity for AChE" result=0.46
compound="O=C(NCCCCCCCCCNc1c2c(nc3ccccc13)CCC2)c1cc(Cl)cc(Cl)c1 [Compound 3h]" experimental_readout="Selectivity for AChE" result=0.91
compound="O=C(NCCCCCCCCNc1c2c(nc3ccccc13)CCC2)c1cc(Cl)cc(Cl)c1 [Compound 3g]" experimental_readout="Selectivity for AChE" result=0.22
compound="O=C(NCCCNc1c2c(nc3ccccc13)CCC2)c1cc(Cl)cc(Cl)c1 [Compound 3b]" experimental_readout="Selectivity for AChE" result=0.56
compound="O=C(NCCCCCNc1c2c(nc3ccccc13)CCC2)c1cc(Cl)cc(Cl)c1 [Compound 3d]" experimental_readout="Selectivity for AChE" result=5.33
compound="O=C(NCCCCNc1c2c(nc3ccccc13)CCC2)c1cc(Cl)cc(Cl)c1 [Compound 3c]" experimental_readout="Selectivity for AChE" result=0.11
compound="O=C(NCCCCCCNc1c2c(nc3ccccc13)CCC2)c1cc(Cl)cc(Cl)c1 [Compound 3e]" experimental_readout="Selectivity for AChE" result=0.89

====

# Assay Method Text: in vitro
# Assay type: cell-based
# Measurement Parameters: human, human hepatic stellate cells (HSCs), 10 µM, read-out: cell viability (hepatotoxicity, MTT)
Experimental Readout: viability at 24 h, 10 µM (%)

smiles_data=O=C(NCCCCCCNc1c2c(nc3ccccc13)CCC2)c1cc(Cl)cc(Cl)c1 result_number=97.3

====

The reader will find reported IC50 values listed item by item below.
# Measured Target: AChE (from the electric eel) (Electrophorus electricus)
Experimental Readout: IC50

smiles_data=O=C(NCCCCCCCCNc1c2c(nc3ccccc13)CCC2)c1cc(Cl)cc(Cl)c1 experimental_readout=IC50 result="1480 nM"
smiles_data=O=C(NCCCCNc1c2c(nc3ccccc13)CCC2)c1cc(Cl)cc(Cl)c1 experimental_readout=IC50 result="1160 nM"
smiles_data=O=C(NCCCNc1c2c(nc3ccccc13)CCC2)c1cc(Cl)cc(Cl)c1 experimental_readout=IC50 result="1180 nM"
